The measured values listed here are drawn from paper PMC5701185.

Biological target: MiPII with MiNAGK (Lobosphaera incisa)
Construct: same proteins as P2; effector site on PII (209-aa precursor, 52-aa signal peptide removed, N-terminal His-tag kept, 21-kD band); read-out NAGK activity; with Acetylglutamate kinase, chloroplastic
Sequence (A0A2R4H197 53-209): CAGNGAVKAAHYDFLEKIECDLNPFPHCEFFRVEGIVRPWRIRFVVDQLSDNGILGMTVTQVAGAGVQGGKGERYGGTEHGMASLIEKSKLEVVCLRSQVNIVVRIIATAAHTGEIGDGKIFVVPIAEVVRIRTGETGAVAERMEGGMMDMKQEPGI
Sequence (A0A2R4H194 60-359 partner): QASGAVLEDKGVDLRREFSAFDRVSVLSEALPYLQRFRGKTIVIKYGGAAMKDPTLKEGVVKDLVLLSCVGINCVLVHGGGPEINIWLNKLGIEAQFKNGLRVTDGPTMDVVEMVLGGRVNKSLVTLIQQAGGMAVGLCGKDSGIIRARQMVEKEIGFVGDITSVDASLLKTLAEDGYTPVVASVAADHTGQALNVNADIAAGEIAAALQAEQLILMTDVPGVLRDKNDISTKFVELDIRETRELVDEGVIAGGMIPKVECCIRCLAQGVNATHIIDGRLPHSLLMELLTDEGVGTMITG
Test: hydroxamate-Fe([…]+) NAGK assay, […] nm
Conditions: read-out: half-maximal effective concentration
pEC50: −log10 of the molar value.
experimental_readout: pEC50

// returns pEC50 for NC(=O)CC[C@H](N)C(=O)O with MiPII with MiNAGK (Lobosphaera incisa); value = ~2.52
